Target: T1, human TREM2 (human, UniProt Q9NZC2 19-174, limits assumed)
T1 construct: also called triggering receptor expressed on myeloid cells 2
T1 sequence: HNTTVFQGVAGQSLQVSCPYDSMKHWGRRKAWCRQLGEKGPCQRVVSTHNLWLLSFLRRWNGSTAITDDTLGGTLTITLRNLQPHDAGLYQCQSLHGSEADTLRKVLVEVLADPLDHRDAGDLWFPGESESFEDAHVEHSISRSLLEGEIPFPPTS
Assay: 1st screen (110 nM or 10 nM)
Quick list: Binding Signal (fold over 6E7 Parental antibody) per entry.
Param answer (str): number followed by unit.

V86 (antibody, V domains shown) VH: EVQLVQSGAEVKKPGESLKISCKGSGYSFGSYWLAWVRQMPGKGLEWMGIIYPGDSDTRYSPSFEGQVTISADKSISTAYLQWSSLKASDTAMYFCARSRTFYYDSSDYFDYWGQGTLVTVSS VL: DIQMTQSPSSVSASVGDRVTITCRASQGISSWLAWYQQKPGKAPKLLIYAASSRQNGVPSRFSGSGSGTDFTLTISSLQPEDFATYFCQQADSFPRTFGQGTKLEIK has a reported Binding Signal (fold over 6E7 Parental antibody) of 4.8 fold

V84 (antibody, V domains shown) VH: EVQLVQSGAEVKKPGESLKISCKGSGYGFTSYWIAWVRQMPGKGLEWMGIIYPGDSDTRYSPSFQGQVTISADKSISTAYLQWSSLKASDTAMYFCARQRTFYYDSSDYSDYWGQGTLVTVSS VL: DIQMTQSPSSVSASVGDRVTITCRASQGISSWLAWYQQKPGKAPKLLIYGASSLQNGVPSRFSGSGSGTDFTLTISSLQPEDFATYFCQQADSFPRTFGQGTKLEIK has a reported Binding Signal (fold over 6E7 Parental antibody) of 1.44 fold

***
V51 (antibody, V domains shown) VH: EVQLVQSGAEVKKPGESLKISCKGSGYSFTSYWIAWVRQMPGKGLEWMGIIYPGDSDVRYSPSFQGQVTISADKSISTAYLQWSSLKASDTAMYFCARGRTFYYDSSDYFDNWGQGTLVTVSS VL: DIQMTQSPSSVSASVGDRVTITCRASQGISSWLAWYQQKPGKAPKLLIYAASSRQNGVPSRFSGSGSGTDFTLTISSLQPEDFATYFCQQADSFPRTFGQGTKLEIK has a reported Binding Signal (fold over 6E7 Parental antibody) of 2.81 fold
